# system tested: ITGB3
# experimental conditions: ASO; further: test concentration or dose not given here
These antisense oligonucleotides have a phosphorothioate backbone; sugars and methylation of C are not fully specified.
measure: remaining target (mRNA or protein) (fraction of control)

(Q) Identify the reported remaining target (mRNA or protein) (fraction of control) for the following entry. `GCCAGCACAGTCACCCAG`
(A) ≥ 1

(Q) Identify the reported remaining target (mRNA or protein) (fraction of control) for the following entry. `GTTCTGGATGCTCCACAG`
(A) 0.55

----------
# system tested: MAP2K1
# experimental conditions: ASO
These antisense oligonucleotides have a phosphorothioate backbone; sugars and methylation of C are not fully specified.
Each item that follows carries a reported remaining target (mRNA or protein) (fraction of control).
Form: value (number only, do not type unit).

Recorded remaining target (mRNA or protein) (fraction of control), per entry:
> print(dat)
   macromolecule.sequence  assay.result
1      AAGGATTTTCATACAATT           0.7
2      TTCCAGCTTTCTTCAGGA          0.58
3      TGGAGTCTTTCTGGCGAC          0.44

(Q) Identify the reported remaining target (mRNA or protein) (fraction of control) for the following entry. `CTCTGTGCATGATCTTGT`
(A) 0.51

(Q) Identify the reported remaining target (mRNA or protein) (fraction of control) for the following entry. `TCTCGCTTCCTCCCTCGT`
(A) 0.74

(Q) Identify the reported remaining target (mRNA or protein) (fraction of control) for the following entry. `AGGCCGATGGTGGAGCAG`
(A) 0.14

(Q) Identify the reported remaining target (mRNA or protein) (fraction of control) for the following entry. `CTACCCACATTCACCAAA`
(A) 0.72

(Q) Identify the reported remaining target (mRNA or protein) (fraction of control) for the following entry. `CTAGGATGTTGGAGGGCT`
(A) 0.27

(Q) Identify the reported remaining target (mRNA or protein) (fraction of control) for the following entry. `CACCCAAACATCAGCTCC`
(A) 0.41

(Q) Identify the reported remaining target (mRNA or protein) (fraction of control) for the following entry. `AGTCACAGAGCTTGATCT`
(A) 0.31

(Q) Identify the reported remaining target (mRNA or protein) (fraction of control) for the following entry. `AACCAGAAGTCTACAGAT`
(A) 0.69

(Q) Identify the reported remaining target (mRNA or protein) (fraction of control) for the following entry. `GTTGGTCTCCGCAGAGCT`
(A) 0.37

(Q) Identify the reported remaining target (mRNA or protein) (fraction of control) for the following entry. `GAAGGATCTCACAAGGCT`
(A) 0.27

(Q) Identify the reported remaining target (mRNA or protein) (fraction of control) for the following entry. `TACCAGAGACAGTCCCAT`
(A) 0.24

(Q) Identify the reported remaining target (mRNA or protein) (fraction of control) for the following entry. `CTCTTTGTTGCTTCCCAA`
(A) 0.38

(Q) Identify the reported remaining target (mRNA or protein) (fraction of control) for the following entry. `CCCAGCTCACTGATCTTC`
(A) 0.89

(Q) Identify the reported remaining target (mRNA or protein) (fraction of control) for the following entry. `GGCCTTTTATTACAGCAA`
(A) 0.5

(Q) Identify the reported remaining target (mRNA or protein) (fraction of control) for the following entry. `CATGAACCATGAGTTGCT`
(A) 0.24

(Q) Identify the reported remaining target (mRNA or protein) (fraction of control) for the following entry. `TAACGCGCTTCCAACTCC`
(A) 0.3

(Q) Identify the reported remaining target (mRNA or protein) (fraction of control) for the following entry. `GCTTGTGGGAGACCTTGA`
(A) 0.65

(Q) Identify the reported remaining target (mRNA or protein) (fraction of control) for the following entry. `TCTCAGCCGCATCTCCTT`
(A) 0.13

(Q) Identify the reported remaining target (mRNA or protein) (fraction of control) for the following entry. `CTGACTGCACAGAGTAAT`
(A) 0.2

(Q) Identify the reported remaining target (mRNA or protein) (fraction of control) for the following entry. `CAAAATCCACTTCCTCAG`
(A) 0.28

(Q) Identify the reported remaining target (mRNA or protein) (fraction of control) for the following entry. `AGCAGCATGGGTTGGTGT`
(A) 0.41

(Q) Identify the reported remaining target (mRNA or protein) (fraction of control) for the following entry. `AGTCGATGAGCTGCCCGC`
(A) 0.24

(Q) Identify the reported remaining target (mRNA or protein) (fraction of control) for the following entry. `TGCAGATACTGATCTCGC`
(A) 0.29
